# target.or.system: S1P3 receptor (Homo sapiens)
# Sequence (Q99500 whole entry): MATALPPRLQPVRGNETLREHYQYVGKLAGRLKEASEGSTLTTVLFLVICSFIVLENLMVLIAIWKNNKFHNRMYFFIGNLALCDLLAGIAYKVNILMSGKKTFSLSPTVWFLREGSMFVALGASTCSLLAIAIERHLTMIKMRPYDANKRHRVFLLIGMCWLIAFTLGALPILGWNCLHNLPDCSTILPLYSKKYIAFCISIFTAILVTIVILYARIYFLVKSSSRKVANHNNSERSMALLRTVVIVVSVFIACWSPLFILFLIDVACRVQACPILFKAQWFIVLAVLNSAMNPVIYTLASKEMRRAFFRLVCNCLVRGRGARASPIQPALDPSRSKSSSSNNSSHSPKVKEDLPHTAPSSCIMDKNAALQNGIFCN
# test.description: in vitro activity in the S1P3 receptor
# Format: cell-based
# condition: Activity potency nM, (IC50)
// NB: equality with 60 nM counts as Not satisfied; only IC50 strictly below is Satisfied

compound	cat
O=C(Nc1cc2c3c(c1)C(c1ccccc1)CCN3CCC2c1ccccc1)N1CCOCC1 (centres unmarked)	Not satisfied
CCCOC(=O)Nc1cc2c3c(c1)C(c1cccc(F)c1)CCN3CCC2c1cccc(F)c1 (centres unmarked)	Not satisfied
CCOC(=O)Nc1cc2c3c(c1)C(c1ccccc1)CCN3CCC2c1ccccc1 (centres unmarked)	Not satisfied
CCCCNC(=O)Nc1cc2c3c(c1)C(c1ccccc1)CCN3CCC2c1ccccc1 (centres unmarked)	Satisfied
O=C(Nc1cc2c3c(c1)C(c1ccccc1)CCN3CCC2c1ccccc1)OCCCCCl (centres unmarked)	Not satisfied
CCCNC(=S)Nc1cc2c3c(c1)C(c1ccccc1)CCN3CCC2c1ccccc1 (centres unmarked)	Not satisfied
CC(C)(C)NC(=O)Nc1cc2c3c(c1)C(c1ccccc1)CCN3CCC2c1ccccc1 (centres unmarked)	Satisfied
C#CCOC(=O)Nc1cc2c3c(c1)C(c1ccccc1)CCN3CCC2c1ccccc1 (centres unmarked)	Satisfied

====

# maps each entry to its IC50
# target.or.system: S1P3 receptor (Homo sapiens)
# test.description: in vitro activity in the S1P3 receptor
# Type: cell-based
# condition: Activity potency nM, (IC50)

compound	units.of.measure	IC50
CCCOC(=O)Nc1cc2c3c(c1)C(c1ccccc1)CCN3CCC2c1ccccc1 (centres unmarked) [compound 275]	nM	12.2
C=CCNC(=O)Nc1cc2c3c(c1)C(c1ccccc1)CCN3CCC2c1ccccc1 (centres unmarked) [compound 773]	nM	160
CC#CCOC(=O)Nc1cc2c3c(c1)C(c1ccccc1)CCN3CCC2c1ccccc1 (centres unmarked) [compound 353]	nM	13
CCCCOC(=O)Nc1cc2c3c(c1)C(c1ccccc1)CCN3CCC2c1ccccc1 (centres unmarked) [compound 276]	nM	8.7
O=C(Nc1cc2c3c(c1)C(c1ccccc1)CCN3CCC2c1ccccc1)OCCCCl (centres unmarked) [compound 205]	nM	8
COC(=O)Nc1cc2c3c(c1)C(c1cccc(F)c1)CCN3CCC2c1cccc(F)c1 (centres unmarked) [compound 779]	nM	23
O=C(NCc1ccoc1)Nc1cc2c3c(c1)C(c1ccccc1)CCN3CCC2c1ccccc1 (centres unmarked) [compound 258]	nM	59
O=C(NCCCl)Nc1cc2c3c(c1)C(c1ccccc1)CCN3CCC2c1ccccc1 (centres unmarked) [compound 769]	nM	374

====

# target.or.system: UniProt:Q99500
# test.description: in vitro activity in the S1P3 receptor
# Assay type: cell-based
# condition: Activity potency nM, (IC50)
# maps each entry to its IC50

molecule	IC50 (nM)
COC(=O)Nc1cc2c3c(c1)C(c1ccccc1)CCN3CCC2c1ccccc1 (stereo not drawn)	8.3
CC(C)COC(=O)Nc1cc2c3c(c1)C(c1ccccc1)CCN3CCC2c1ccccc1 (stereo not drawn)	64
C=CCCOC(=O)Nc1cc2c3c(c1)C(c1ccccc1)CCN3CCC2c1ccccc1 (stereo not drawn)	16
CCOC(=O)Nc1cc2c3c(c1)C(c1cccc(F)c1)CCN3CCC2c1cccc(F)c1 (stereo not drawn)	48
O=C(Nc1cc2c3c(c1)C(c1ccccc1)CCN3CCC2c1ccccc1)Oc1ccccc1 (stereo not drawn)	901
CCNC(=O)Nc1cc2c3c(c1)C(c1ccccc1)CCN3CCC2c1ccccc1 (stereo not drawn)	77
CCCCOC(=O)Nc1cc2c3c(c1)C(c1cccc(F)c1)CCN3CCC2c1cccc(F)c1 (stereo not drawn)	272
CCCCCCNC(=O)Nc1cc2c3c(c1)C(c1ccccc1)CCN3CCC2c1ccccc1 (stereo not drawn)	301
O=C(Nc1cc2c3c(c1)C(c1ccccc1)CCN3CCC2c1ccccc1)OCCF (stereo not drawn)	56
CN(C)C(=O)Nc1cc2c3c(c1)C(c1ccccc1)CCN3CCC2c1ccccc1 (stereo not drawn)	131
CCCCCCNC(=S)Nc1cc2c3c(c1)C(c1ccccc1)CCN3CCC2c1ccccc1 (stereo not drawn)	78
O=C(Nc1cc2c3c(c1)C(c1ccccc1)CCN3CCC2c1ccccc1)OCc1ccccc1 (stereo not drawn)	66
